Target: HIV-1 IAVI_C22 Env (HIV-1 strain IAVI C22)
Test: cell-based or functional assay
Parameter: IC50 neutralization, 1 hour virus/Ab incubation

# Binder, Value Measured
records = [
    ("1456_P20 (PG20) (antibody, human IgG1, kappa, V domains shown) VH: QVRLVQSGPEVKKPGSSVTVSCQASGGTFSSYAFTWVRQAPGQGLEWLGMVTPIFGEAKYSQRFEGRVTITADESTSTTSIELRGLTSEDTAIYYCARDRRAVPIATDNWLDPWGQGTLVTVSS VL: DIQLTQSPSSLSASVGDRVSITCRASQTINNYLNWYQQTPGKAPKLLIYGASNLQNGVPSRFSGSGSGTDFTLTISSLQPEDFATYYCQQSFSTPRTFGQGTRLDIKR", "> 50 µg/mL"),
    ("1443_C16 (PG16) (TCN-116) (antibody, V domains shown) VH: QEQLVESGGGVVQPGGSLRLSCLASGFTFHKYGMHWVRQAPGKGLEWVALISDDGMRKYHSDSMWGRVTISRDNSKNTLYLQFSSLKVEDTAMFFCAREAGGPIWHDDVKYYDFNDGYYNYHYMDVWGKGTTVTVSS VL: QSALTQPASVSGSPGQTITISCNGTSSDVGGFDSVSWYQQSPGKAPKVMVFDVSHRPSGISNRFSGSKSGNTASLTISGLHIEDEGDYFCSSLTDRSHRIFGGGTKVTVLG", "0.114 µg/mL"),
    ("1460_G14 (PGG14) (antibody, human IgG1, kappa, V domains shown) VH: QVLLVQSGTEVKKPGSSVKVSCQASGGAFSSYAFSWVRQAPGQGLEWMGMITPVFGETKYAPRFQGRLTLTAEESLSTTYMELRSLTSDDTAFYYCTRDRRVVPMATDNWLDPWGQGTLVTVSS VL: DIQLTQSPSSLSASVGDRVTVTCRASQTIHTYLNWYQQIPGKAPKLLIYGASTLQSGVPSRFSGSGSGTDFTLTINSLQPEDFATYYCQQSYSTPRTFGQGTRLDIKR", "> 50 µg/mL"),
    ("1495_C14 (PGC14) (antibody, human IgG1, lambda, V domains shown) VH: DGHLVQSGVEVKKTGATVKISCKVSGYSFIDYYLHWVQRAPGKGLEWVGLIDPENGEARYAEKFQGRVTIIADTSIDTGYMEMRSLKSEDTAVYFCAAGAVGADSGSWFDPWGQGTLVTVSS VL: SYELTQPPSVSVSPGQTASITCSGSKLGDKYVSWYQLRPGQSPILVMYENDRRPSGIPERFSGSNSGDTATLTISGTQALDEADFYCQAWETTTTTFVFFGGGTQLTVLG", "> 50 µg/mL"),
]
